# test_details: Plasma levels of 9-deoxo-16,16-dimethyl-9-methylene-PGE2 by radioimmunoassay after insertion of a suppository
# Assay type: in vivo, Rhesus monkeys (Macaca mulatta)
# condition_description: rhesus monkey, plasma, 30 mg, plasma; Monkey #18; 4 Hours; 30 mg Potassium Salt in H15 Plus 2% CSD + 10% Triacetin Suppositories; read-out: Drug Levels
Where a name gives a salt, the structure may show the parent alone.
measurement_type: concentration at 4 h
Kindly format the answer as number then unit.

Fill blank: measured concentration at 4 h of the compound C=C1C[C@@H](O)[C@H](/C=C/[C@@H](O)C(C)(C)CCCC)[C@H]1C/C=C\CCCC(=O)O [Potassium Salt] is ____.
35.5 ng/mL

---

# test_details: Plasma levels of 9-deoxo-16,16-dimethyl-9-methylene-PGE2 by radioimmunoassay after insertion of a suppository
# Assay type: in vivo, Rhesus monkeys (Macaca mulatta)
# condition_description: rhesus monkey, plasma, 30 mg, plasma; Monkey #7; 0.5 Hours; 30 mg Free Acid in H15 Plus 2% CSD Suppositories; read-out: Drug Levels
measurement_type: concentration at 0.5 h (ng/mL)
Express the result in ng/mL but write the number alone.

Given the compound C=C1C[C@@H](O)[C@H](/C=C/[C@@H](O)C(C)(C)CCCC)[C@H]1C/C=C\CCCC(=O)O [Free Acid, 9-deoxo-16,16-dimethyl-9-methylene-PGE2] , what is its reported concentration at 0.5 h?
44.5

---

# test_details: Plasma levels of 9-deoxo-16,16-dimethyl-9-methylene-PGE2 by radioimmunoassay after insertion of a suppository
# Format: in vivo, Rhesus monkeys (Macaca mulatta)
# condition_description: rhesus monkey, plasma, 30 mg, plasma; Monkey #17; 3 Hours; 30 mg Potassium Salt in H15 Plus 2% CSD + 10% Triacetin Suppositories; read-out: Drug Levels
Counter-ions that a name gives are not always drawn.
measurement_type: concentration at 3 h (ng/mL)
The reply should be a number in ng/mL, with the unit left off.

Query: concentration at 3 h; subject: C=C1C[C@@H](O)[C@H](/C=C/[C@@H](O)C(C)(C)CCCC)[C@H]1C/C=C\CCCC(=O)O [Potassium Salt]
20.1

---

# test_details: Plasma levels of 9-deoxo-16,16-dimethyl-9-methylene-PGE2 by radioimmunoassay after insertion of a suppository
# Type: in vivo, Rhesus monkeys (Macaca mulatta)
# condition_description: rhesus monkey, plasma, 30 mg, plasma; Monkey #13; 0.25 Hours; 30 mg Free Acid in H15 Plus 2% CSD + 10% Triacetin Suppositories; read-out: Drug Levels
measurement_type: concentration at 0.25 h (ng/mL)
Write the number in ng/mL without appending the unit.

Can you share its concentration at 0.25 h? I mean this compound: C=C1C[C@@H](O)[C@H](/C=C/[C@@H](O)C(C)(C)CCCC)[C@H]1C/C=C\CCCC(=O)O [Free Acid, 9-deoxo-16,16-dimethyl-9-methylene-PGE2]
12.6

---

# test_details: Plasma levels of 9-deoxo-16,16-dimethyl-9-methylene-PGE2 by radioimmunoassay after insertion of a suppository
# Format: in vivo, Rhesus monkeys (Macaca mulatta)
# condition_description: rhesus monkey, plasma, 30 mg, plasma; Monkey #4; 1.5 Hours; 30 mg Potassium Salt in H15 Suppositories; read-out: Drug Levels
Counter-ions that a name gives are not always drawn.
measurement_type: concentration at 1.5 h (ng/mL)
A number alone suffices; assume ng/mL.

Fill blank: measured concentration at 1.5 h of the compound C=C1C[C@@H](O)[C@H](/C=C/[C@@H](O)C(C)(C)CCCC)[C@H]1C/C=C\CCCC(=O)O [Potassium Salt] is ____.
0.41
